Molecular target: GST-Syk Full Protein (human) (Homo sapiens, UniProt P43405)
Assay: Syk kinase inhibition test (HTRF method)
Format: biochemical
Conditions: HTRF, 100 μM ATP, 30 min room temperature, average; read-out: sykHTRF ave IC50
MEASURED METRIC: IC50

{"columns": ["COMPOUND STRING", "IC50"],
 "data": [
  ["COc1ccnc(Nc2cccc(-c3cnc([C@H](C)NC(C)=O)s3)n2)c1", "100 to 1000 nM"],
  ["COc1ccnc(Nc2cccc(-c3cnc([C@H]4CC[C@H](C(N)=O)CC4)s3)n2)c1", "< 100 nM"],
  ["Cc1ccnc(Nc2cccc(-c3cnc([C@H](C)OC(=O)N(C)C)s3)n2)c1", "< 100 nM"],
  ["CC(=O)N[C@@H](CO)c1ncc(-c2cccc(Nc3cc(C)ccn3)n2)s1", "100 to 1000 nM"],
  ["Cc1ccnc(Nc2cccc(-c3cnc([C@@H](N)CCC(=O)O)s3)n2)c1", "100 to 1000 nM"]
]}

For COC(=O)CN1CCC(c2ncc(-c3cccc(Nc4cc(C)ccn4)n3)s2)CC1 on GST-Syk Full Protein (human) (Homo sapiens, UniProt P43405), measured IC50 was 100 to 1000 nM

Value (IC50, GST-Syk Full Protein (human) (Homo sapiens, UniProt P43405)) for record O=C1CC[C@@H](c2ncc(-c3cccc(Nc4cc(CCO)ccn4)n3)s2)N1 = < 100 nM

Form: item Cc1ccnc(Nc2cccc(-c3cnc(C4CCN(C)CC4)s3)n2)c1 ; test system GST-Syk Full Protein (human) (Homo sapiens, UniProt P43405); IC50: 100 to 1000 nM

====

Target: GST-Syk Full Protein (human) (Homo sapiens, UniProt P43405)
Assay: Syk kinase inhibition test (HTRF method)
Assay type: biochemical
Details: HTRF, 100 μM ATP, 30 min room temperature, average; read-out: sykHTRF ave IC50
MEASURED METRIC: IC50

{"columns": ["COMPOUND", "READING"],
 "data": [
  ["CCOC(=O)c1ncc(-c2cccc(Nc3cc(C)ccn3)n2)s1", "< 100 nM"]
]}

For reference, reported IC50 for Cc1ccnc(Nc2cccc(-c3cnc(C(=O)C(C)C)s3)n2)c1 stands at 100 to 1000 nM

Recorded result, CC(=O)c1ncc(-c2cccc(Nc3cc(C)ccn3)n2)s1 , IC50: < 100 nM

Quick note, IC50 for Cc1ccnc(Nc2cccc(-c3cnc([C@H](C)NC(C)C)s3)n2)c1 landed at 100 to 1000 nM

====

Biological target: GST-Syk Full Protein (human) (Homo sapiens)
Test: Syk kinase inhibition test (HTRF method)
Format: biochemical
Details: HTRF, 100 μM ATP, 30 min room temperature, average; read-out: sykHTRF ave IC50
MEASURED METRIC: IC50

Before answering, review these 7 worked examples.
{"columns": ["MOLECULE", "SYSTEM", "IC50"],
 "data": [
  ["Cc1ccnc(Nc2cccc(-c3cnc([C@@H]4CCC(=O)N4)s3)n2)c1", "GST-Syk Full Protein (human) (Homo sapiens)", "< 100 nM"],
  ["Cc1ccnc(Nc2cccc(-c3cnc(C4CCN(C(=O)N(C)C)CC4)s3)n2)c1", "GST-Syk Full Protein (human) (Homo sapiens)", "100 to 1000 nM"],
  ["CON(C)C(=O)c1ncc(-c2cccc(Nc3cc(C)ccn3)n2)s1", "GST-Syk Full Protein (human) (Homo sapiens)", "< 100 nM"],
  ["CCOC(=O)CC(=O)N[C@@H](C)c1ncc(-c2cccc(Nc3cc(C)ccn3)n2)s1", "GST-Syk Full Protein (human) (Homo sapiens)", "> 1000 nM"],
  ["Cc1ccnc(Nc2cccc(-c3cnc(N(C)C[C@H]4CC[C@H](C(=O)O)CC4)s3)n2)c1", "GST-Syk Full Protein (human) (Homo sapiens)", "< 100 nM"],
  ["Cc1ccnc(Nc2cccc(-c3cnc(C4CCC(c5nnn[nH]5)CC4)s3)n2)c1 (centres unmarked)", "GST-Syk Full Protein (human) (Homo sapiens)", "< 100 nM"],
  ["CC(=O)NC(C)(C)c1ncc(-c2cccc(Nc3cc(C)ccn3)n2)s1", "GST-Syk Full Protein (human) (Homo sapiens)", "100 to 1000 nM"]
]}

Please turn your attention to the following entry.
Entry Cc1ccnc(Nc2cccc(-c3cnc(COC(=O)NC[C@H]4CC[C@H](C(=O)O)CC4)s3)n2)c1 , IC50 reported as > 1000 nM
